Values compiled from the RNAGym collection of RNA variant scans (doi:10.7554/elife.90254).

B1: LINE1-full (parent)
chain: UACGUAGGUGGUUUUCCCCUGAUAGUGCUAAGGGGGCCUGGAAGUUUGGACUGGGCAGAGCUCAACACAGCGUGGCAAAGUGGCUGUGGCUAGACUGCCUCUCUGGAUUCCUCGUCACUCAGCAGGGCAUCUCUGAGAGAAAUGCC

Variants of: B1
Experiment: self-cleavage, relative activity (ratio to wild type); higher = more cleavage; in vitro, sequencing; the parent is a self-cleaving ribozyme
Overview of reported self-cleavage across a group of variants:
Kindly provide the number alone.

For orientation, consider the following solved cases.
chain sequence	self-cleavage
UACGUAGGAGGUUUUCCCCUGAUAGUGCUAAGGGGGCCUGGAAGUUUGGACUGGGCAGAGCUCAACACAGCGUGGCAAAGUGGCUGUGGCUAGACUACCUCUCUGGAUUCCUCGUCACUCAGCAGGGCAUCUCUGAGAGAAAUGCC [U9A G97A]	0.12
UACGUAGGUGGUUUUCCCCUGAUAGUGCUAAGGGGGCCUGGAAGUUUGGACUGGACAGAGCUCAACACAGCGUGGCAAAGUGGCUGUGGCUAGACUGCCUCUCUGGAUUCCUCGUCACUCAGCAGGGCAUCUCUGAGAGAGAUGCC [G55A A141G]	0.11
UACGUAGGUGGUUUUCCCCUGAUAGUGCUAAGGGGGCCUGGAAGUUUGGACUGGGCAGAGCUCAACACAGCGUGGCAAAGUGGCUGUGGCUAGACUGCCUCUCUGGAUUUCUCGUCACUCAGCAGGGCAUCUCUGAGAGAAAUGCU [C110U C146U]	1.82
UACGUAGGUGGUGUUCCCCUGAUAGUGCUAAGGUGGCCUGGAAGUUUGGACUGGGCAGAGCUCAACACAGCGUGGCAAAGUGGCUGUGGCUAGACUGCCUCUCUGGAUUCCUCGUCACUCAGCAGGGCAUCUCUGAGAGAAAUGCC [U13G G34U]	1.2
UACGUAGGUGGUCAUCCCCUGAUAGUGCUAAGGGGGCCUGGAAGUUUGGACUGGGCAGAGCUCAACACAGCGUGGCAAAGUGGCUGUGGCUAGACUGCCUCUCUGGAUUCCUCGUCACUCAGCAGGGCAUCUCUGAGAGAAAUGCC [U13C U14A]	0.79

Give the measured self-cleavage of UACGUAGGUGGUUUUCCCCUGAUAGUGCUAAGGGGGCCUGGAAGUUUGGACUGGGCAGAGCUCAACACAGCGUGGCAAAGAGGCUGUGGCUAGACUGCCUCUCUGGAUUCCCCGUCACUCAGCAGGGCAUCUCUGAGAGAAAUGCC [U81A U112C] .
2.32

Then this variant: UACGUAGGUGGUUUUCCCCGGGUAGUGCUAAGGGGGCCUGGAAGUUUGGACUGGGCAGAGCUCAACACAGCGUGGCAAAGUGGCUGUGGCUAGACUGCCUCUCUGGAUUCCUCGUCACUCAGCAGGGCAUCUCUGAGAGAAAUGCC [U20G A22G]
0.41

Then this variant: UACGUAGGUGGUUUUCCCCUGAUAGGGCUAAGGGGGCCUGGAAGUUUGGGCUGGGCAGAGCUCAACACAGCGUGGCAAAGUGGCUGUGGCUAGACUGCCUCUCUGGAUUCCUCGUCACUCAGCAGGGCAUCUCUGAGAGAAAUGCC [U26G A50G]
0.56

Then this variant: UACGUAGGUGGUUUUCCCCUGAUAGUGCUAAGGGGGCCUGGAAGUUUGGACUGGGCAGAGCUCAACCCAGCGUGGCAAAGUGGCUGUGGCUGGACUGCCUCUCUGGAUUCCUCGUCACUCAGCAGGGCAUCUCUGAGAGAAAUGCC [A67C A92G]
0.05

Then this variant: UACGUAGGUGGUUUUCCCCUGAUAGUGCUAAGGGGGCCUGGAAGUUUGGACUGGGCAGAGCUCAACACAGCGUGGCAAAGUGGCUGUGGCUAGACUGCUUCUCUGGAUUCCUCGUCACUCAGCGGGGCAUCUCUGAGAGAAAUGCC [C99U A124G]
0.32
